Molecular target: Mitogen-activated protein kinase kinase kinase 7 (Homo sapiens)
Sequence (O43318 whole entry): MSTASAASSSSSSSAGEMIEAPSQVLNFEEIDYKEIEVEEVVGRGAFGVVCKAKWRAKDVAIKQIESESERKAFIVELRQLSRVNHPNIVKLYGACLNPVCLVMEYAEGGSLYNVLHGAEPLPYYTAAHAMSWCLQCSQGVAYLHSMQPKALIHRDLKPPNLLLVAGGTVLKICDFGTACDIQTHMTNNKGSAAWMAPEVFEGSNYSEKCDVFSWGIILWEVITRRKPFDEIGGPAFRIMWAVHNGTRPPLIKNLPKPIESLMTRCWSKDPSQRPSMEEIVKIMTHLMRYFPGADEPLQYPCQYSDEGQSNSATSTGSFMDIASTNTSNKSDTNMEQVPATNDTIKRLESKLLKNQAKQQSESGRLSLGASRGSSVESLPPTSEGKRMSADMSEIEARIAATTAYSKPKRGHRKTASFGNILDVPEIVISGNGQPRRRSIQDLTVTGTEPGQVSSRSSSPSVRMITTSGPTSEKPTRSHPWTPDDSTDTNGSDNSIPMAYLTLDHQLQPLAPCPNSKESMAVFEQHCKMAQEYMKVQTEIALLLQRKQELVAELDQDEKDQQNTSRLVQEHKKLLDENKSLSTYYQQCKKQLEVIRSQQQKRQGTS
Assay: Inhibition of TAK1 (unknown origin) by LanthaScreen assay
pIC50: −log10 of the molar value.
Classification field: enter Criterion met for pIC50 values not below 8, Criterion not met for values below it.

molecule_smiles=C=CC(=O)Nc1ccccc1Oc1nc(Nc2cnn(CCOC)c2)ncc1Cl class_assignment="Criterion met"
molecule_smiles=C=CC(=O)Oc1ccccc1Nc1nc(Nc2cccc(N3CCN(C(C)=O)CC3)c2)ncc1Cl class_assignment="Criterion met"
molecule_smiles=C=CC(=O)Nc1ccccc1Oc1nc(Nc2ccc(N3CCN(C)CC3)cc2)ncc1C class_assignment="Criterion not met"
molecule_smiles=C=CC(=O)Nc1cc(NC(C)=O)ccc1Nc1nc(Nc2ccc(N3CCN(C)CC3)cc2)ncc1Cl class_assignment="Criterion not met"
molecule_smiles=C=CC(=O)Nc1ccccc1Nc1nc(Nc2ccc(N3CCN(C)CC3)cc2)ncc1Cl class_assignment="Criterion not met"
molecule_smiles=CN1CCN(c2ccc(Nc3ncc(Cl)c(Nc4ccccc4NC(=O)CCl)n3)cc2)CC1 class_assignment="Criterion not met"
molecule_smiles=C=CC(=O)Oc1ccccc1Nc1nc(Nc2ccc(N3CCOCC3)cc2)ncc1Cl class_assignment="Criterion met"
molecule_smiles=C=CC(=O)Nc1ccccc1Oc1nc(Nc2ccc(N3CCN(C)CC3)cc2)ncc1C1CC1 class_assignment="Criterion not met"
molecule_smiles=C=CC(=O)Nc1ccccc1Sc1nc(Nc2ccc(N3CCN(C)CC3)cc2)ncc1Cl class_assignment="Criterion not met"
molecule_smiles=C=CC(=O)Nc1ccccc1Oc1nc(Nc2ccc(N3CCN(C)CC3)cc2)ncc1Cl class_assignment="Criterion met"
molecule_smiles=C=CC(=O)Nc1ccccc1Oc1nc(Nc2ccc(N3CCN(C)CC3)cc2)nc(N)c1Cl class_assignment="Criterion not met"
molecule_smiles=C=CC(=O)Nc1ccccc1-n1ccc2cnc(Nc3ccc(N4CCN(C)CC4)cc3)nc21 class_assignment="Criterion not met"
molecule_smiles=C=CC(=O)Oc1ccccc1Nc1nc(Nc2ccc(N3CCN(C)CC3)cc2)ncc1Cl class_assignment="Criterion met"
molecule_smiles=CCC(=O)Nc1ccccc1Oc1nc(Nc2cnn(CCOC)c2)ncc1Cl class_assignment="Criterion not met"
molecule_smiles=CCC(=O)Nc1ccccc1Nc1nc(Nc2ccc(N3CCN(C)CC3)cc2)ncc1Cl class_assignment="Criterion not met"
molecule_smiles=C=CC(=O)Nc1ccccc1Oc1nc(Nc2ccc(N3CCN(C)CC3)cc2)ncc1OC class_assignment="Criterion not met"
molecule_smiles=C=CC(=O)Nc1ccccc1Oc1ccnc(Nc2ccc(N3CCN(C)CC3)cc2)n1 class_assignment="Criterion not met"
molecule_smiles=C=CC(=O)Nc1ccccc1Oc1nc(Nc2cnn(C3CCOCC3)c2)ncc1Cl class_assignment="Criterion met"
molecule_smiles=C=CC(=O)Oc1ccccc1Nc1nc(Nc2cccc(N3CCOCC3)c2)ncc1Cl class_assignment="Criterion met"

====

Tested on: BaF3
Assay: Antiproliferative activity against mouse BA/F3 cells after 72 hrs by CellTiter-Glo assay
Format: cell-based
Settings: BaF3, 72 h
Entries and their measured IC50 follow.
Measured parameter: IC50

molecule_smiles=C=CC(=O)Nc1ccccc1Oc1ccnc(Nc2ccc(N3CCN(C)CC3)cc2)n1 measured_parameter=IC50 observed_measurement="1930 nM"
molecule_smiles=CN1CCN(c2ccc(Nc3ncc(Cl)c(Nc4ccccc4NC(=O)CCl)n3)cc2)CC1 measured_parameter=IC50 observed_measurement="206 nM"
molecule_smiles=C=CC(=O)Oc1ccccc1Nc1nc(Nc2ccc(N3CCN(C)CC3)cc2)ncc1Cl measured_parameter=IC50 observed_measurement="234 nM"
molecule_smiles=C=CC(=O)Nc1ccccc1Oc1nc(Nc2ccc(N3CCN(C)CC3)cc2)ncc1C measured_parameter=IC50 observed_measurement="385 nM"
molecule_smiles=C=CC(=O)Nc1ccccc1Oc1nc(Nc2cnn(C(F)F)c2)ncc1Cl measured_parameter=IC50 observed_measurement="539 nM"
molecule_smiles=C=CC(=O)Nc1ccccc1Oc1nc(Nc2ccc(N3CCN(C)CC3)cc2)ncc1C1CC1 measured_parameter=IC50 observed_measurement="1340 nM"
molecule_smiles=C=CC(=O)Oc1ccccc1Nc1nc(Nc2ccc(N3CCOCC3)cc2)ncc1Cl measured_parameter=IC50 observed_measurement="423 nM"
molecule_smiles=C=CC(=O)Nc1ccccc1Oc1nc(Nc2ccc(N3CCN(C)CC3)cc2)ncc1Cl measured_parameter=IC50 observed_measurement="274 nM"
molecule_smiles=C=CC(=O)Nc1ccccc1Sc1nc(Nc2ccc(N3CCN(C)CC3)cc2)ncc1Cl measured_parameter=IC50 observed_measurement="838 nM"
molecule_smiles=C=CC(=O)Nc1ccccc1Oc1nc(Nc2cnn(C)c2)ncc1Cl measured_parameter=IC50 observed_measurement="2940 nM"
molecule_smiles=CCC(=O)Nc1ccccc1Oc1nc(Nc2cnn(CCOC)c2)ncc1Cl measured_parameter=IC50 observed_measurement="2080 nM"
molecule_smiles=C=CC(=O)Nc1ccccc1-n1ccc2cnc(Nc3ccc(N4CCN(C)CC4)cc3)nc21 measured_parameter=IC50 observed_measurement="3270 nM"
molecule_smiles=C=CC(=O)Nc1ccccc1Oc1nc(Nc2ccc(N3CCN(C)CC3)cc2)ncc1OC measured_parameter=IC50 observed_measurement="476 nM"
molecule_smiles=CC(C)Nc1cc(-c2c[nH]c(C(=O)N[C@H](CO)c3cccc(Cl)c3)c2)c(Cl)cn1 measured_parameter=IC50 observed_measurement="2230 nM"

====

Tested on: HEL
Assay: Antiproliferative activity against human HEL cells at […] to […] nM after 72 hrs by CellTiter-Glo assay
Format: functional, cell-based
Activity calls are given as the source filed them. The rule behind the calls is not given here.
Measured parameter: Activity

molecule_smiles=C=CC(=O)Nc1ccccc1Oc1nc(Nc2ccc(N3CCN(C)CC3)cc2)ncc1Cl observed_measurement=inactive
molecule_smiles=CN1CCN(c2ccc(Nc3ncc(Cl)c(Nc4ccccc4NC(=O)CCl)n3)cc2)CC1 observed_measurement=inactive
molecule_smiles=C=CC(=O)Nc1ccccc1Nc1nc(Nc2ccc(N3CCN(C)CC3)cc2)ncc1Cl observed_measurement=inactive
molecule_smiles=C=CC(=O)Oc1ccccc1Nc1nc(Nc2ccc(N3CCOCC3)cc2)ncc1Cl observed_measurement=inactive
molecule_smiles=C=CC(=O)Nc1ccccc1Oc1nc(Nc2cnn(C(F)F)c2)ncc1Cl observed_measurement=inactive
molecule_smiles=C=CC(=O)Nc1ccccc1Oc1nc(Nc2cnn(CCOC)c2)ncc1Cl observed_measurement=inactive

====

System: PANC-1
Assay: Antiproliferative activity against human PANC1 cells harboring KRAS G12D mutant after 72 hrs by CellTiter-Glo assay
Format: functional, cell-based
Details: PANC-1, 72 h
pIC50: −log10 of the molar value.
Measured parameter: pIC50

molecule_smiles=C=CC(=O)Nc1ccccc1Oc1nc(Nc2ccc(N3CCN(C)CC3)cc2)ncc1Cl measured_parameter=pIC50 observed_measurement=5.90
molecule_smiles=C=CC(=O)Nc1ccccc1Oc1nc(Nc2cnn(CCOC)c2)ncc1Cl measured_parameter=pIC50 observed_measurement=5.25
molecule_smiles=CCC(=O)Nc1ccccc1Oc1nc(Nc2ccc(N3CCN(C)CC3)cc2)ncc1Cl measured_parameter=pIC50 observed_measurement=5.87
molecule_smiles=CCC(=O)Nc1ccccc1Nc1nc(Nc2ccc(N3CCN(C)CC3)cc2)ncc1Cl measured_parameter=pIC50 observed_measurement=6.37
molecule_smiles=COc1cc(O)c2c(c1)/C=C/C[C@H](O)[C@H](O)C(=O)/C=C\C[C@H](C)OC2=O measured_parameter=pIC50 observed_measurement=5.60
